meta.source: ChEMBL document CHEMBL4321845

Each item that follows carries a reported Tmax.
Assay: Tmax in rat at 100 mg/kg, po measured up to 24 hrs by LC-MS/MS analysis
Type: ADME, organism-based
Settings: in vivo

(Q) # Tmax lookup, item COC(=O)N[C@H](C(=O)N1CCC[C@H]1c1ncc(-c2ccc3c(ccc4cc(-c5cnc([C@@H]6CCCN6C(=O)[C@@H](NC(=O)OC)C(C)C)[nH]5)sc43)c2)[nH]1)C(C)C
(A) 4 to 6 h

(Q) I have this compound here, COC(=O)N[C@H](C(=O)N1CCC[C@H]1c1ncc(-c2ccc3c(c2)OCc2cc(-c4cnc([C@@H]5CCCN5C(=O)[C@@H](NC(=O)OC)C(C)C)[nH]4)sc2-3)[nH]1)C(C)C , and I need its recorded Tmax.
(A) 2 to 6 h

(Q) Suppose we examine the compound COC(=O)N[C@H](C(=O)N1CCC[C@H]1c1ncc(-c2ccc3c(c2)CCc2cc(-c4cnc([C@@H]5CCCN5C(=O)[C@@H](NC(=O)OC)C(C)C)[nH]4)sc2-3)[nH]1)C(C)C ; what Tmax value has been reported?
(A) 2 to 4 h

----------
Assay: Volume of distribution at steady state in rat at 1 mg/kg, iv measured up to 24 hrs by LC-MS/MS analysis
Format: ADME, organism-based
Settings: in vivo, read-out: Vdss
Label y for high-side Vd (at or above 2 L/kg) and n for low-side Vd (below it).

Consider the worked cases shown below.
(Q) hey, is Vd for this one >= 2 L/kg? COC(=O)N[C@H](C(=O)N1CCC[C@H]1c1ncc(-c2ccc3c(c2)CCc2cc(-c4cnc([C@@H]5CCCN5C(=O)[C@@H](NC(=O)OC)C(C)C)[nH]4)sc2-3)[nH]1)C(C)C
(A) n

(Q) Is it the case that COC(=O)N[C@H](C(=O)N1CCC[C@H]1c1ncc(-c2ccc3c(c2)OCC(C)(C)COc2cc(-c4cnc([C@@H]5CCCN5C(=O)[C@@H](NC(=O)OC)C(C)C)[nH]4)ccc2-3)[nH]1)C(C)C has Vd reaching or exceeding 2 L/kg?
(A) y

(Q) Could you please find out whether COC(=O)N[C@H](C(=O)N1CCC[C@H]1c1nc(Cl)c(-c2ccc3c(c2)OCC(C)(C)COc2cc(-c4[nH]c([C@@H]5CCCN5C(=O)[C@@H](NC(=O)OC)C(C)C)nc4Cl)ccc2-3)[nH]1)C(C)C has Vd that meets 2 L/kg or exceeds it?
(A) y

Next:
(Q) Is Vd for COC(=O)N[C@H](C(=O)N1CCC[C@H]1c1ncc(-c2ccc3c(c2)OCc2cc(-c4cnc([C@@H]5CCCN5C(=O)[C@@H](NC(=O)OC)C(C)C)[nH]4)sc2-3)[nH]1)C(C)C at or above 2 L/kg?
(A) n

----------
Assay: Cytotoxicity in human HepG2 cells assessed as inhibition of cell growth at 3 uM incubated for 72 hrs by CCK8 assay relative to control
Format: cell-based
Conditions: read-out: GI
Recorded inhibition at 72 h, 3 µM for the following compounds
Response body: numeric value in %, unit text excluded.

(Q) Recorded inhibition at 72 h, 3 µM for COC(=O)N[C@H](C(=O)N1CCC[C@H]1c1nc(Cl)c(-c2ccc3c(c2)OCC(C)(C)COc2cc(-c4[nH]c([C@@H]5CCCN5C(=O)[C@@H](NC(=O)OC)C(C)C)nc4Cl)ccc2-3)[nH]1)C(C)C , please?
(A) 23

(Q) Dear colleague, I am looking for the recorded inhibition at 72 h, 3 µM of the following compound: COC(=O)N[C@H](C(=O)N1CCC[C@H]1c1ncc(-c2ccc3c(c2)CCc2cc(-c4cnc([C@@H]5CCCN5C(=O)[C@@H](NC(=O)OC)C(C)C)[nH]4)sc2-3)[nH]1)C(C)C
(A) 0

(Q) Please give the measured inhibition at 72 h, 3 µM for this compound: COC(=O)N[C@H](C(=O)N1CCC[C@H]1c1ncc(-c2ccc3c(c2)OCc2cc(-c4cnc([C@@H]5CCCN5C(=O)[C@@H](NC(=O)OC)C(C)C)[nH]4)sc2-3)[nH]1)C(C)C
(A) 0

(Q) // inhibition at 72 h, 3 µM lookup, key: COC(=O)N[C@H](C(=O)N1CCC[C@H]1c1ncc(-c2ccc3c(c2)OCC(C)(C)COc2cc(-c4cnc([C@@H]5CCCN5C(=O)[C@@H](NC(=O)OC)C(C)C)[nH]4)ccc2-3)[nH]1)C(C)C
(A) 8

Others:
(Q) Need inhibition at 72 h, 3 µM of COC(=O)N[C@H](C(=O)N1CCC[C@H]1c1ncc(-c2ccc3c(ccc4cc(-c5cnc([C@@H]6CCCN6C(=O)[C@@H](NC(=O)OC)C(C)C)[nH]5)sc43)c2)[nH]1)C(C)C , thanks.
(A) 3

----------
Test: Cmax in rat at 30 mg/kg, po measured up to 24 hrs by LC-MS/MS analysis
Type: ADME, organism-based
Design: dose 30 mg/kg, route oral
Conditions: in vivo
Listed next: entries and their corresponding Cmax.
Write the number in nM without appending the unit.

Observe how each entry below is paired with its result.
(Q) Which value of Cmax has been reported for COC(=O)N[C@H](C(=O)N1CCC[C@H]1c1ncc(-c2ccc3c(c2)CCc2cc(-c4cnc([C@@H]5CCCN5C(=O)[C@@H](NC(=O)OC)C(C)C)[nH]4)sc2-3)[nH]1)C(C)C in the records?
(A) 14000

(Q) What value of measured Cmax is listed for COC(=O)N[C@H](C(=O)N1CCC[C@H]1c1ncc(-c2ccc3c(c2)OCc2cc(-c4cnc([C@@H]5CCCN5C(=O)[C@@H](NC(=O)OC)C(C)C)[nH]4)sc2-3)[nH]1)C(C)C ?
(A) 2000

Further cases:
(Q) Quick check: Cmax of COC(=O)N[C@H](C(=O)N1CCC[C@H]1c1ncc(-c2ccc3c(ccc4cc(-c5cnc([C@@H]6CCCN6C(=O)[C@@H](NC(=O)OC)C(C)C)[nH]5)sc43)c2)[nH]1)C(C)C ?
(A) 3000

----------
Test: Half life in rat at 1 mg/kg, iv measured up to 24 hrs by LC-MS/MS analysis
Assay type: ADME, organism-based
Settings: in vivo
PROPERTY MEASURED: half-life (h)
Answer format: numeric, h implied, no suffix.

(Q) I'd like to know its half-life. The compound in question is COC(=O)N[C@H](C(=O)N1CCC[C@H]1c1ncc(-c2ccc3c(ccc4cc(-c5cnc([C@@H]6CCCN6C(=O)[C@@H](NC(=O)OC)C(C)C)[nH]5)sc43)c2)[nH]1)C(C)C
(A) 2

(Q) Reported half-life, compound COC(=O)N[C@H](C(=O)N1CCC[C@H]1c1ncc(-c2ccc3c(c2)OCC(C)(C)COc2cc(-c4cnc([C@@H]5CCCN5C(=O)[C@@H](NC(=O)OC)C(C)C)[nH]4)ccc2-3)[nH]1)C(C)C : ____
(A) 2.1

(Q) half-life lookup needed for COC(=O)N[C@H](C(=O)N1CCC[C@H]1c1nc(Cl)c(-c2ccc3c(c2)OCC(C)(C)COc2cc(-c4[nH]c([C@@H]5CCCN5C(=O)[C@@H](NC(=O)OC)C(C)C)nc4Cl)ccc2-3)[nH]1)C(C)C , thanks.
(A) 3.8

(Q) Look up half-life: COC(=O)N[C@H](C(=O)N1CCC[C@H]1c1ncc(-c2ccc3c(c2)CCc2cc(-c4cnc([C@@H]5CCCN5C(=O)[C@@H](NC(=O)OC)C(C)C)[nH]4)sc2-3)[nH]1)C(C)C
(A) 1.5

Further cases:
(Q) What does the data say about its half-life? Entry: COC(=O)N[C@H](C(=O)N1CCC[C@H]1c1ncc(-c2ccc3c(c2)OCc2cc(-c4cnc([C@@H]5CCCN5C(=O)[C@@H](NC(=O)OC)C(C)C)[nH]4)sc2-3)[nH]1)C(C)C
(A) 1.9

----------
Test: AUC (last) in rat at 10 mg/kg, po measured up to 24 hrs by LC-MS/MS analysis
Format: ADME, organism-based
Parameters: dose 10 mg/kg, time 0 - last, route oral
Settings: in vivo
# AUC(0-t) at 24 h per record follows
Express the result in µM·h but write the number alone.

(Q) Entry under review: COC(=O)N[C@H](C(=O)N1CCC[C@H]1c1nc(Cl)c(-c2ccc3c(c2)OCC(C)(C)COc2cc(-c4[nH]c([C@@H]5CCCN5C(=O)[C@@H](NC(=O)OC)C(C)C)nc4Cl)ccc2-3)[nH]1)C(C)C . Reported AUC(0-t) at 24 h?
(A) 2.4

More entries:
(Q) # input molecule: COC(=O)N[C@H](C(=O)N1CCC[C@H]1c1ncc(-c2ccc3c(c2)OCC(C)(C)COc2cc(-c4cnc([C@@H]5CCCN5C(=O)[C@@H](NC(=O)OC)C(C)C)[nH]4)ccc2-3)[nH]1)C(C)C ; wanted: its AUC(0-t) at 24 h
(A) 5.2

----------
Test: Drug metabolism in rat liver microsomes assessed as metabolic rate at 1 uM preincubated for 5 mins before NADPH addition and measured up to 30 mins by LC-MS/MS analysis
Format: ADME, Microsome
Conditions: 0.5 h
Listed next: entries and their corresponding Drug metabolism.
Kindly provide the numeric value in nmol/min/mg only, without the unit symbol.

These solved cases illustrate the format of a correct answer.
(Q) What value of Drug metabolism has been reported for the following compound? COC(=O)N[C@H](C(=O)N1CCC[C@H]1c1nc(Cl)c(-c2ccc3c(c2)OCC(C)(C)COc2cc(-c4[nH]c([C@@H]5CCCN5C(=O)[C@@H](NC(=O)OC)C(C)C)nc4Cl)ccc2-3)[nH]1)C(C)C
(A) 0

(Q) Requested field: Drug metabolism. Item: COC(=O)N[C@H](C(=O)N1CCC[C@H]1c1ncc(-c2ccc3c(ccc4cc(-c5cnc([C@@H]6CCCN6C(=O)[C@@H](NC(=O)OC)C(C)C)[nH]5)sc43)c2)[nH]1)C(C)C
(A) 0.01

(Q) Dear colleague, I am looking for the recorded Drug metabolism of the following compound: COC(=O)N[C@H](C(=O)N1CCC[C@H]1c1ncc(-c2ccc3c(c2)OCc2cc(-c4cnc([C@@H]5CCCN5C(=O)[C@@H](NC(=O)OC)C(C)C)[nH]4)sc2-3)[nH]1)C(C)C
(A) 0.01

(Q) Please report the recorded Drug metabolism for COC(=O)N[C@H](C(=O)N1CCC[C@H]1c1ncc(-c2ccc3c(c2)CCc2cc(-c4cnc([C@@H]5CCCN5C(=O)[C@@H](NC(=O)OC)C(C)C)[nH]4)sc2-3)[nH]1)C(C)C .
(A) 0.01

Turning now to a further record.
(Q) So what's the measured Drug metabolism for this one? COC(=O)N[C@H](C(=O)N1CCC[C@H]1c1ncc(-c2ccc3c(c2)OCC(C)(C)COc2cc(-c4cnc([C@@H]5CCCN5C(=O)[C@@H](NC(=O)OC)C(C)C)[nH]4)ccc2-3)[nH]1)C(C)C
(A) 0.01
